meta.source: the RNAGym collection of RNA variant scans (doi:10.1073/pnas.2313332121)

B1: TPR 5TU (parent)
chain: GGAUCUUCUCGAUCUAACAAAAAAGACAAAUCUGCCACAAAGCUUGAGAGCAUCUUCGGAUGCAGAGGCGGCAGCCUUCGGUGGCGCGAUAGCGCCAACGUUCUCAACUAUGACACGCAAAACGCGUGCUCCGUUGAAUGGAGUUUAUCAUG

Variants of: B1
Assay: polymerase ribozyme fitness, log enrichment relative to wild type (log ratio); higher = more active; in vitro selection for triplet polymerase activity
Fewer inactive variants are shown than the library holds.
# polymerase ribozyme fitness (log ratio) values compiled below
Form rule: numeric answer, no unit written next to it.

Here are 10 variants together with their reported answers.
C35A A60G C87U C96A G136A U146A	-4.03
A41U U82C C87U C125G G126C U144G	-2.6
A12C C93A	-2.68
G11A U56A C99U G143C	-3.7
A47G A98G A115G C123G U130A	-3.77
U15G A17U	-0.367
U55A C76A	-0.81
G46U A98G	0.0194
C85U C96G U135C	-2.57
U53A G67C C76G G84A C114U	-4.1

### Prompt // polymerase ribozyme fitness (log ratio) lookup, key: A17U C96G A142U U146A
### Response -2.11

### Prompt Okay, and G83C A150G ?
### Response -2.66

### Prompt Repeat for the following variant: C38U A47U A121U U135A A142U
### Response -2.42
